Test system: electrical field gradient (Δψ) across IMVs
Test: Δψ assay (oxonol VI fluorescence with IMVs)
Assay type: biochemical, Escherichia coli
Settings: electrical field gradient; IMVs A280 = 0.5; NADH
Method: Hit compounds surviving the in vitro Tat transport assay screens could be general Δψ inhibitors (ionophores), as both NADH and ATP generate the Δψ necessary for Tat transport. […] The presence of a Δψ was determined by measuring oxonol VI fluorescence. […] Supplementary file pone.0149659.s003.tiff: S3 Fig IC50's for Hit Compound 181^JS. […] (D) SDS-PAGE gel showing in-gel fluorescence data used in (B). […]
Result Type: pIC50
Interpret pIC50 as the negative base-10 log of the concentration measured in mol/L.

1. FC(F)(F)c1cccc(-c2cccc3cnccc23)c1 : 6.00
2. Fc1nc(F)c(F)c(NNC(=S)Nc2cccc(C(F)(F)F)c2)c1F : 7.00
3. N#CC(C#N)=NNc1ccccc1Br [Compound 1, [(2-bromophenyl)hydrazono]malononitrile] : 6.00

Let's switch to this compound now.
Query string: Write down pIC50 measured for item O=[N+]([O-])c1cc([N+](=O)[O-])c2ccccc2c1Cl
Result string: 5.10
